TARGET OF ASSAY: UniProtKB P10635
Sequence (P10635 whole entry): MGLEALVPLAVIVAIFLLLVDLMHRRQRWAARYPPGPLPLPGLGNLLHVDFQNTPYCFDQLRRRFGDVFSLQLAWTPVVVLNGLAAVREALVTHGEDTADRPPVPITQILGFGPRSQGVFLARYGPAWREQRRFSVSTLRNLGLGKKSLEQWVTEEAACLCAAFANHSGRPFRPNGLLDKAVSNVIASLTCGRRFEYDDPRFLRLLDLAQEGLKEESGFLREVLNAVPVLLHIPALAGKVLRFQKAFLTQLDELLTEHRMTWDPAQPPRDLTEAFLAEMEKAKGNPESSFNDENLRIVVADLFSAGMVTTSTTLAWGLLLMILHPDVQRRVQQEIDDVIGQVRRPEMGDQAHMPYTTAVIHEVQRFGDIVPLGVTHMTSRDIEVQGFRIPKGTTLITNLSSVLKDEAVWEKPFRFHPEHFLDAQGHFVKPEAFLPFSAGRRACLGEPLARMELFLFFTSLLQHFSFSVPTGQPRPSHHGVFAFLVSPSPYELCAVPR
TEST METHOD NOTES: Inhibition of human recombinant CYP2D6
MEASURE NAME: IC50 (µM)
Number in µM, nothing else.

What IC50 value was documented for this compound, CC(C)Oc1ccc(S(=O)(=O)Cc2ccc3c(c2)CCNCC3)cn1 ?
1.6

What IC50 value was documented for this compound, CC(C)S(=O)(=O)Nc1ccc2c(c1)CCN(Cc1ccn[nH]1)CC2 ?
16

What IC50 value was documented for this compound, O=S(=O)(Cc1ccc2c(c1)CCNCC2)c1ccc(N2CCOCC2)nc1 ?
16

----------
TARGET OF ASSAY: Cytochrome P450 2C19 (Homo sapiens)
Sequence (P33261 whole entry): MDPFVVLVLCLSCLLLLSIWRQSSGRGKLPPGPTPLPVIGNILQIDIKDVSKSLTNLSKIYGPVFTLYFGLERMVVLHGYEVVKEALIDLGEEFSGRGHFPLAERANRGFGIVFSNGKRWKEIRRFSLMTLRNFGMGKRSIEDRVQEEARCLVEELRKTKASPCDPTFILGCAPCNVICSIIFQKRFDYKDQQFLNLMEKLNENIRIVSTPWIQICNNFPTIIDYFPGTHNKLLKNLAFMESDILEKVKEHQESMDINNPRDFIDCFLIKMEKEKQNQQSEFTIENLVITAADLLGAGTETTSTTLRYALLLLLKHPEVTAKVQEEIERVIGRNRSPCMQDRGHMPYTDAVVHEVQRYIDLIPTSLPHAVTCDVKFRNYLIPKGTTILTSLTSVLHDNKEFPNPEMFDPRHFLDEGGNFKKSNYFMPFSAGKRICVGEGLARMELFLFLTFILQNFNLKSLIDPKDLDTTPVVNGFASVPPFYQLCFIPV
TEST METHOD NOTES: Inhibition of human recombinant CYP2C19
Format: ADME
MEASURE NAME: IC50 (µM)
Number in µM, nothing else.

What IC50 value was documented for this molecule, CCCCc1ccc(S(=O)(=O)Nc2ccc3c(c2)CCN(Cc2ccn[nH]2)CC3)cc1 ?
8.8

----------
Consider the following compounds; for each one, report its pEC50.
TARGET OF ASSAY: Motilin receptor (Homo sapiens)
Sequence (O43193 whole entry): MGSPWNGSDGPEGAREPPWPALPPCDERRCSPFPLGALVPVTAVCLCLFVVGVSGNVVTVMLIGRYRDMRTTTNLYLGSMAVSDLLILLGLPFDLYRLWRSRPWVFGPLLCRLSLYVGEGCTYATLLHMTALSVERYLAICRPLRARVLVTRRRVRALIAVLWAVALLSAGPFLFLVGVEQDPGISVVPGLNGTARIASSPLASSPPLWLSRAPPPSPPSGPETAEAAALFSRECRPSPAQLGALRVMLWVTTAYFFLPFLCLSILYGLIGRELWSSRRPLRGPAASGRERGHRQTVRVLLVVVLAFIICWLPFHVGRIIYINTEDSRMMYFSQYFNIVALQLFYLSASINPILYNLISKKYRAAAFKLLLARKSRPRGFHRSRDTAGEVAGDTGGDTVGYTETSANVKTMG
TEST METHOD NOTES: Agonist activity at human recombinant motilin receptor expressed in CHO cells by FLIPR assay
Units for pEC50: none; it is -log10 of a concentration expressed in mol/L.

What pEC50 value was documented for this compound, O=S(=O)(Nc1ccc2c(c1)CCNCC2)c1ccc(N2CCOCC2)nc1 ?
5.80

What pEC50 value was documented for this compound, O=S(=O)(Cc1ccc2c(c1)CCNCC2)c1ccc(-c2ccc(Cl)cc2)cc1 ?
7.70

What pEC50 value was documented for this compound, CCCCc1ccc(S(=O)(=O)Nc2ccc3c(c2)CCN(Cc2[nH]cnc2C)CC3)cc1 ?
8.50

What pEC50 value was documented for this compound, N#Cc1ccc(S(=O)(=O)Nc2ccc3c(c2)CCN(Cc2cc[nH]n2)CC3)cc1 ?
5.10

What pEC50 value was documented for this compound, O=S(=O)(Cc1ccc2c(c1)CCNCC2)c1ccc(-c2ccc(F)c(F)c2)cc1 ?
7.60

----------
TARGET OF ASSAY: Growth hormone secretagogue receptor type 1 (Homo sapiens)
Sequence (Q92847 whole entry): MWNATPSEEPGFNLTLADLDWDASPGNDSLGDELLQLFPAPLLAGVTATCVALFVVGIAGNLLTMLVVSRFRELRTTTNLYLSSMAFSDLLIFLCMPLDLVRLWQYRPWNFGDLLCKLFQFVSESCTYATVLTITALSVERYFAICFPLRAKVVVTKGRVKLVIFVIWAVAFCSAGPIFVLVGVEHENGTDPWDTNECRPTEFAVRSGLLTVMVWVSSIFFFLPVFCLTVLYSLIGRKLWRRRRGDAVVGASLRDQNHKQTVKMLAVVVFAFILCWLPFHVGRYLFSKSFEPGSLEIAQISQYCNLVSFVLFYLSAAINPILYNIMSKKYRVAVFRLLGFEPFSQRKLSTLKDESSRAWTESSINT
TEST METHOD NOTES: Agonist activity at human ghrelin receptor
pEC50: −log10 of the molar value.
Consider the following compounds; for each one, report its pEC50.

What pEC50 value was documented for this compound, O=S(=O)(Cc1ccc2c(c1)CCNCC2)c1ccc(-c2ccc(Cl)cc2)nc1 ?
< 6.00

What pEC50 value was documented for this compound, O=S(=O)(Cc1ccc2c(c1)CCNCC2)c1ccc(Oc2ccc(F)cc2)nc1 ?
< 6.00

What pEC50 value was documented for this compound, CCCCc1ccc(S(=O)(=O)Nc2ccc3c(c2)CCN(Cc2cnc(C)[nH]2)CC3)cc1 ?
7.70

What pEC50 value was documented for this compound, O=S(=O)(Cc1ccc2c(c1)CCNCC2)c1ccc(Nc2ccc(F)cc2)nc1 ?
< 6.00

What pEC50 value was documented for this compound, O=S(=O)(Nc1ccc2c(c1)CCN(Cc1cc[nH]n1)CC2)c1ccc(N2CCOCC2)nc1 ?
< 6.00

What pEC50 value was documented for this compound, O=S(=O)(Cc1ccc2c(c1)CCNCC2)c1ccc2ccccc2c1 ?
< 5.00

What pEC50 value was documented for this compound, O=S(=O)(Cc1ccc2c(c1)CCNCC2)c1ccc(-c2ccc(F)c(F)c2)cc1 ?
< 6.00

What pEC50 value was documented for this compound, O=S(=O)(Nc1ccc2c(c1)CCN(Cc1cc[nH]n1)CC2)c1ccc(-c2ccccc2)cc1 ?
5.80

What pEC50 value was documented for this compound, O=S(=O)(Cc1ccccc1)Nc1ccc2c(c1)CCN(Cc1ccn[nH]1)CC2 ?
< 6.00

What pEC50 value was documented for this compound, N#Cc1ccc(-c2ccc(S(=O)(=O)Cc3ccc4c(c3)CCNCC4)cn2)cc1 ?
< 6.00

This collection of values is drawn from ChEMBL document CHEMBL1154336.
